Molecular target: IL-17A/F (Homo sapiens, UniProt Q16552+Q96PD4)
Sequence (Q16552 24-155): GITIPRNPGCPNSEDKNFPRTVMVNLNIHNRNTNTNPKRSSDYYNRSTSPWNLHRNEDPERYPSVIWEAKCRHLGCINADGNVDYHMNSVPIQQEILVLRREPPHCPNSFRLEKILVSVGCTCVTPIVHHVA
Sequence (Q96PD4 31-163): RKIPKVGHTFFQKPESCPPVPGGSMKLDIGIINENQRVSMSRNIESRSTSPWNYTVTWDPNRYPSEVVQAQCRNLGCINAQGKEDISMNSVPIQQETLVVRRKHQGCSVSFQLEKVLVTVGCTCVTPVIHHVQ
Experiment: IL-17A/F HEK-Blue cell assay (SEAP reporter)
Conditions: HEK-Blue IL-17A reporter cells, IL17A/F 5 ng/mL, 20 hours, SEAP read at A630; read-out: HEK-Blue IL17AF (IC50 for IL-17A/F inhibition)
pIC50: −log10 of the molar value.
Parameter: pIC50

Input line: Sample `C[C@H]1CN(c2nc3nc([C@@H](NC(=O)c4ccnn4C)[C@@H]4CCCC(F)(F)C4)cn3nc2C[C@H]2C[C@@H](C(F)(F)F)CNC2=O)CCO1` — what was its pIC50?
Output line: 6.00 to 7.00

Input line: Sample `CCn1nccc1C(=O)N[C@H](c1cn2nc(C[C@H]3CC(F)(F)CNC3=O)c(C3CCOCC3)nc2n1)C1CCC(F)(F)CC1` — what was its pIC50?
Output line: < 6.00

Input line: Sample `CCn1nccc1C(=O)N[C@H](c1cn2nc(C[C@@H]3C(=O)NC4CC3C4)c(C3CCOCC3)nc2n1)C1CCC(F)(F)CC1` — what was its pIC50?
Output line: < 6.00

Input line: Sample `CCn1ncnc1C(=O)N[C@H](c1cn2nc(C[C@H]3C[C@@H](C(F)(F)F)CNC3=O)c(C3CCOCC3)nc2n1)[C@H]1CCCC(F)(F)C1` — what was its pIC50?
Output line: 6.00 to 7.00

Input line: Sample Cn1nccc1C(=O)N[C@H](c1cn2nc(C[C@H]3C[C@@H](C(F)(F)F)CNC3=O)c([C@@H]3CCCOC3)nc2n1)C1CCC(F)(F)CC1 (single isomer, unassigned) — what was its pIC50?
Output line: 6.00 to 7.00

Input line: Sample `CCn1nccc1C(=O)N[C@H](c1cn2nc(C[C@H]3C[C@@H](C(F)(F)F)CNC3=O)c(C3CCOCC3)nc2n1)C1CCCCC1` — what was its pIC50?
Output line: > 7.00

Input line: Sample CCn1nccc1C(=O)N[C@H](c1cn2nc(C[C@H]3C[C@@H](C(F)(F)F)CNC3=O)c(CC3CCCO3)nc2n1)C1CCC(F)(F)CC1 (stereo partly drawn) — what was its pIC50?
Output line: 6.00 to 7.00

Input line: Sample `CCn1nccc1C(=O)N[C@H](c1cn2nc(C[C@@H]3CC4(CC4)CNC3=O)c(C3CCOCC3)nc2n1)C1CCC(F)(F)CC1` — what was its pIC50?
Output line: 6.00 to 7.00

Input line: Sample `CCn1nccc1C(=O)N[C@H](c1cn2nc(C[C@H]3C[C@@H](C(F)(F)F)CNC3=O)c(C(C)C)nc2n1)[C@@H]1CCCC(F)(F)C1` — what was its pIC50?
Output line: 6.00 to 7.00

Input line: Sample CCn1nccc1C(=O)N[C@H](c1cn2nc(CC3C[C@@H](C(F)(F)F)CNC3=O)c(N3CCO[C@@H](C)C3)nc2n1)[C@@H]1CCCC(F)(F)C1 (single isomer, unassigned) [Compound 207] — what was its pIC50?
Output line: 6.00 to 7.00

Input line: Sample `Cc1nonc1C(=O)N[C@H](c1cn2nc(C[C@H]3C[C@@H](C(F)(F)F)CNC3=O)c(C3CCOCC3)nc2n1)C1CC2(C1)CC(F)(F)C2` — what was its pIC50?
Output line: < 6.00

Input line: Sample `Cn1nccc1C(=O)N[C@H](c1cn2nc(C[C@H]3C[C@@H](C(F)(F)F)CNC3=O)c(C3CCOCC3)nc2n1)C(C1CC1)C1CC1` — what was its pIC50?
Output line: 6.00 to 7.00
